study_system: Muscarinic acetylcholine receptor M1 (Homo sapiens, UniProt P11229)
Sequence (P11229 whole entry): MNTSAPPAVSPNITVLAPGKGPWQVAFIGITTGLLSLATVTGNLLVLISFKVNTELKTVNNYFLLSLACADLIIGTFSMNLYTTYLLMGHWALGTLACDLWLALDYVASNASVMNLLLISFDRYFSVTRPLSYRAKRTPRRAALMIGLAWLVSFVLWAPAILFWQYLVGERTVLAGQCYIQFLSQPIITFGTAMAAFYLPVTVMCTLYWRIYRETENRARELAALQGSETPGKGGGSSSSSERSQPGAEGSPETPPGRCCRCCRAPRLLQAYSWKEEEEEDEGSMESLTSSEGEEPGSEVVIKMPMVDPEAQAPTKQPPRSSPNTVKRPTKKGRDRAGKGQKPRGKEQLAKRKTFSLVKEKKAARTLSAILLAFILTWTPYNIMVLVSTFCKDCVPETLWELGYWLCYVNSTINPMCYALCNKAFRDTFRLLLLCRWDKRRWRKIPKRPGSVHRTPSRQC
test_details: The compound was tested for its binding affinity against M1 human recombinant muscarinic receptor in CHO cells.
Format: cell-based
property_label: pIC50
# pIC50 = -log10(concentration in molar units)

// query Quick check: pIC50 of COc1ccc(COc2ccc(-c3cc(/C=C4\CN5CCC4C5)on3)cc2OCc2ccc(OC)cc2)cc1 (stereo not given) ?
// result 6.94

// query Quick check: pIC50 of COc1ccc(COc2ccc(-c3cc(/C=C4\CN5CCC4CC5)on3)cc2OCc2ccc(OC)cc2)cc1 ?
// result 6.59

// query Quick check: pIC50 of CC(C)(C)OC(=O)Nc1ccc(-c2cc(/C=C3/CN4CCC3CC4)on2)cc1 ?
// result 6.09

// query Quick check: pIC50 of COc1ccc(COc2ccc(-c3cc(/C=C4/CN5CCC4CC5)on3)cc2OCc2ccc(OC)cc2)cc1 ?
// result 6.61
